Biological target: Glutamate NMDA receptor
Experiment: relative affinity against N-methyl-D-aspartate glutamate receptor in caudate using [3H](+)-MK-801 as radioligand
# IC50 annotations
Supply the numeric figure in µM, leaving out any unit text.

Some compounds with known IC50 results, for comparison:
compound	target_or_test_system	endpoint_value
CC[C@H]1C[C@@H]2C[C@H]3c4[nH]c5ccc(OC)cc5c4CCN(C2)[C@@H]13	Glutamate NMDA receptor	5.2
CCN1CCc2c(sc3ccccc23)C(c2cccc(Br)c2)C1 (stereo unspecified)	Glutamate NMDA receptor	46.6
CC[C@@H]1CC2C[C@@H]3c4[nH]c5ccc(O)cc5c4CCN(C2)C13	Glutamate NMDA receptor	31.4
CCN1CCc2c(sc3ccccc23)C(c2ccccc2)C1 (stereo unspecified)	Glutamate NMDA receptor	42
CCN1CCc2c(sc3ccccc23)C(c2ccc(Cl)c(Cl)c2)C1 (stereo unspecified)	Glutamate NMDA receptor	81

Next, consider the following compound.
Challenge: Requested read-out: IC50. Entry: CCN1CCc2c(sc3ccccc23)C(c2cccc([N+](=O)[O-])c2)C1 (stereo unspecified)
Response given: 32
